Data provenance: patent US20210008018A1

measured on: β-hydroxybutyrate dehydrogenase from Pseudomonas lemoignei (Paucimonas lemoignei)
Sequence (A0A4R3I0R9 entry or part of it): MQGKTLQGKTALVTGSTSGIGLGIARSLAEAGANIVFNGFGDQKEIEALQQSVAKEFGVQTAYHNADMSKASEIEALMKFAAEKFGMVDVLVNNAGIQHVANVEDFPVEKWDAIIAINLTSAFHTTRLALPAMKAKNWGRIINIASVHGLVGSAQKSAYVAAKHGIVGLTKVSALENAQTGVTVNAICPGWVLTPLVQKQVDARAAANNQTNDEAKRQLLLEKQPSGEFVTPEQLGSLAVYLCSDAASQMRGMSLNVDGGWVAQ
protocol details: Metabolic stability using D-β-hydroxybutyrate dehydrogenase (NADH formation, Km/Vmax)
conditions: intrinsic clearance calculated from Vmax and Km
Recorded CLint, one value per entry.
endpoint name: CLint (mL/min)

molecule="[2H][C@](C)(O)CC(=O)O [Compound 100, (R)-3-Hydroxybutanoic-3-d1 Acid]" numeric_value=0.0190
molecule="[2H]C([2H])([2H])[C@@H](O)CC(=O)O [Compound 202, (R)-3-hydroxybutanoic-4,4,4-d3 Acid]" numeric_value=0.0520
molecule="[2H]C([2H])([2H])[C@@]([2H])(O)CC(=O)O [Compound 102, (R)-3-hydroxybutanoic-3,4,4,4-d4 Acid]" numeric_value=0.0125
molecule="C[C@@H](O)CC(=O)O [DBHB, D-β-hydroxybutyric acid, reference compound]" numeric_value=0.0267
